system_under_test: human tryptase
assay_explanation: Inhibition of human tryptase (apparent dissociation constant, chromogenic substrate tos-Gly-Pro-arg-pNA)
assay_conditions: apparent dissociation constant in presence of substrate; heparin 0.1-50 μg/ml; equilibrium conditions; read-out: Klapp
pKi: −log10 of the molar value. Structures can show the parent of a compound that is named as a salt.
quantity_measured: pKi

Past entries and their recorded results:
{"compound": "NCc1ccc(CCC(=O)N2CCN(C(=O)CN3CCC(=O)N(CC(=O)N4CCN(C(=O)CCc5ccc(CN)cc5)CC4)CCC3=O)CC2)cc1 [Compound 2, Dihydrochloride]", "pKi": 8.92}
{"compound": "NCc1cccc(CCC(=O)N2CCN(C(=O)CN3CCC(=O)N(CC(=O)N4CCN(C(=O)CCc5cccc(CN)c5)CC4)CCC3=O)CC2)c1 [Compound 3, Dihydrochloride]", "pKi": 8.48}

[P] NCc1ccc(OCC(=O)N2CCN(C(=O)CN3CCC(=O)N(CC(=O)N4CCN(C(=O)COc5ccc(CN)cc5)CC4)CCC3=O)CC2)cc1 [Compound 4, Dihydrochloride]
[Q] NCc1ccc(CNC(=O)N2CCN(C(=O)CN3CCC(=O)N(CC(=O)N4CCN(C(=O)NCc5ccc(CN)cc5)CC4)CCC3=O)CC2)cc1 [Compound 1, Dihydrochloride]
Query: Select one: P or Q . Criterion: greater recorded pKi. // respond with label for picked entry
Reply: P
(P: 9.10, Q: 8.59)
